# ASSAY_SYSTEM: recombinant human M5 muscarinic acetylcholine receptor (Homo sapiens)
# Sequence (P08912 whole entry): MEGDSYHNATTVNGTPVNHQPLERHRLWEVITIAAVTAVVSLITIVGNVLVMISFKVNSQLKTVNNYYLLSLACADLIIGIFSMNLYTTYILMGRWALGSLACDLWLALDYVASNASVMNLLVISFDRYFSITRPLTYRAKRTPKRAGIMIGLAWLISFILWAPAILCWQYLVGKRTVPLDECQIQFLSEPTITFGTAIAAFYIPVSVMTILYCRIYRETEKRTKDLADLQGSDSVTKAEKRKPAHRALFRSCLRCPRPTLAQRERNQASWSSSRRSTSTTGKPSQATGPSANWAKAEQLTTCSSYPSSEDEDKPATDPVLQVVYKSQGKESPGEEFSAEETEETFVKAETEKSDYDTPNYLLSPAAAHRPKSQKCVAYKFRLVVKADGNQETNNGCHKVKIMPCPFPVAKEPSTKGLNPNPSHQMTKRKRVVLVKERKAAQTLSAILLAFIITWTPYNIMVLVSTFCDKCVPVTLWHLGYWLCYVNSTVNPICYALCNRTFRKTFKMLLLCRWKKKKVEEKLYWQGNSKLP
# PROTOCOL_NOTES: Muscarinic M5 receptor radioligand binding
# ASSAY_CONTEXT: 3H-N-Methylscopolamine 0.8 nM, CHO cell membranes
Below, each entry is listed alongside its reported Ki.

{"COMPOUND": "COCCOCCOCCOCCOCCOCCOCCN(C)C(C)CN1c2ccccc2Sc2ccccc21 (stereo not drawn)", "READOUT_UNIT": "nM", "Ki": 905}
{"COMPOUND": "CC(CN1c2ccccc2Sc2ccccc21)N(C)C (stereo not drawn) [Promethazine, reference compound]", "READOUT_UNIT": "nM", "Ki": 9.34}
{"COMPOUND": "COCCOCCOCCOCCOCCOCCN(C)C(C)CN1c2ccccc2Sc2ccccc21 (stereo not drawn)", "READOUT_UNIT": "nM", "Ki": 1740}
